- System: HT-29
- testDescription: NCI tumour cell line growth inhibition, 48 h
The source made the active and inactive calls. Cut-off read from the data, not from the text of the source: active = GI50 up to about 1.1 µM and inactive = higher.
Would you mind answering with one of these outcomes? 1 = active, 0 = inactive

INSERT INTO results (molecule, systemtested, label) VALUES
  ('Cc1nc2ccc([N+](=O)[O-])cc2c(=O)n1C(=S)Nc1cccc(Cl)c1', 'HT-29', 0),
  ('CC(=O)NC(c1nc2cc(C)c(C)cc2[nH]1)c1nc2cc(C)c(C)cc2[nH]1', 'HT-29', 0),
  ('CC(C)C(/C=C/c1ccccc1)=N\NC(=O)N/N=C(/C=C/c1ccccc1)C(C)C', 'HT-29', 0),
  ('CCOC(=O)C(=O)C(CCC(=O)c1ccc2ccccc2c1O)C(=O)OCC (stereo unspecified)', 'HT-29', 0);

Input: Outcome? Cc1cc(C)nc(NS(=O)(=O)c2ccc(NNc3c4ccccc4nc4c(C(=O)Nc5ccc(S(=O)(=O)Nc6cc(C)on6)cc5)cccc34)cc2)n1
Output: 0

Input: Outcome? O=c1n(-c2ccc(Cl)c(Cl)c2)c(=O)n(-c2ccc(Cl)c(Cl)c2)c(=O)n1-c1ccc(Cl)c(Cl)c1
Output: 0

Input: Outcome? COC1OC(OC)C2C(c3c(C)cc(C)cc3C)=NOC12 (stereo unspecified)
Output: 0

Input: Outcome? CC(NC1=NCCO1)c1ccccc1Cl (stereo unspecified)
Output: 0

Input: Outcome? CC(=O)C1(c2ccccc2)CCN(Cn2sc3nc(C)cc(C)c3c2=O)CC1
Output: 0

Input: Outcome? COc1cc(CSc2ccc(O)cc2)cc(O)c1O
Output: 0

Input: Outcome? CCOC(=O)N1CCN(c2ccc3ccc(N)nc3n2)CC1
Output: 0
